target: purified human IDO protein (Homo sapiens, UniProt P14902); construct: 2 extra amino acids (linker from the BglII cloning site of pQE70); made in house; host or cells: E. coli M15(pREP4) with plasmid pQE70-hIDO; experiment: Enzymatic IDO assay (kynurenine production, absorbance at 480 nm); type: biochemical; settings: recombinant human IDO; values reported in ranges; read-out: hIDO IC50
Sequence (P14902 whole entry P110S/E119G): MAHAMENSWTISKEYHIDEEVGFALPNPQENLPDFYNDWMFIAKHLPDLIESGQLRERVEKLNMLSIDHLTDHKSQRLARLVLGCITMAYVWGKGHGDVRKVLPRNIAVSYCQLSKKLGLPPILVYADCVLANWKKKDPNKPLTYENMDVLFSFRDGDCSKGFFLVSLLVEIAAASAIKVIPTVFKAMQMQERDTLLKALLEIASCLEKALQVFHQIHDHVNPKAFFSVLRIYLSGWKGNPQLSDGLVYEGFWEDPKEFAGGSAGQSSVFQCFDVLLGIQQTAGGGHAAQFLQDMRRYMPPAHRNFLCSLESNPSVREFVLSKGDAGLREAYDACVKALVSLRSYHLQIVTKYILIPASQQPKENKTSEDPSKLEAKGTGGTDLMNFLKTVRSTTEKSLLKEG
measured-endpoint: IC50

In [3]: df
Out[3]:
                                   compound  measured_result
0  O=C(Nc1ccc(CCOc2ccccc2-c2c[nH]cn2)cc1)NC1CCOCC1 [compound 1263]     10 to 100 µM
1  c1ccc(-c2c[nH]cn2)c(OCc2ccc3c(c2)OCO3)c1 [compound 1027]     10 to 100 µM

Q: For the compound COC(=O)c1cccc(C(=O)Nc2ccc(CCOc3ccccc3-c3c[nH]cn3)cc2)c1 [compound 1261] , what IC50 is on record?
Result: < 1 µM

Q: Now the same for FC(F)(F)c1ccc(COc2ccccc2-c2c[nH]cn2)cc1 [compound 1023]
Result: > 100 µM

Q: Now consider O=C(O)c1ccc(COc2ccccc2-c2c[nH]cn2)cc1 [compound 1032] and answer again.
Result: 10 to 100 µM

Q: Would you mind doing OC(COc1ccccc1-c1c[nH]cn1)c1cccc(Br)c1 (stereo not shown) [compound 954] as well?
Result: 10 to 100 µM

Q: Item: CCOC(=O)/C=C/c1ccccc1-c1c[nH]cn1 [compound 1014]
Result: 10 to 100 µM

---

Items are presented alongside their recorded IC50.
target: purified human IDO protein (Homo sapiens); construct: 2 extra amino acids (linker from the BglII cloning site of pQE70); made in house; host or cells: E. coli M15(pREP4) with plasmid pQE70-hIDO; test: Enzymatic IDO assay (kynurenine production, absorbance at 480 nm); format: biochemical; details: recombinant human IDO; values reported in ranges; read-out: hIDO IC50

These recorded examples may help you get a feel for the data.
In [3]: df
Out[3]:
                                   compound                             target_entity  measured_endpoint  measured_result
0  c1nc(-c2ccc3[nH]ccc3c2)c[nH]1 [compound 949, 5-(1H-imidazol-4-yl)-1H-indole]  purified human IDO protein (Homo sapiens)               IC50         > 100 µM
1  O=C(O)c1cccc(C(=O)Nc2ccc(CCOc3ccccc3-c3c[nH]cn3)cc2)c1 [compound 1276]  purified human IDO protein (Homo sapiens)               IC50       1 to 10 µM
2  O=C(Nc1ccc(CCOc2ccccc2-c2c[nH]cn2)cc1)c1cc(=O)[nH]c(=O)[nH]1 [compound 1272]  purified human IDO protein (Homo sapiens)               IC50       1 to 10 µM
3  CC(Oc1ccccc1-c1c[nH]cn1)c1ccc(Cl)cc1 (stereo not drawn) [compound 1024]  purified human IDO protein (Homo sapiens)               IC50     10 to 100 µM
4  O=C(Cn1ccnc1)Nc1ccc(CCOc2ccccc2-c2c[nH]cn2)cc1 [compound 1217]  purified human IDO protein (Homo sapiens)               IC50       1 to 10 µM

Q: Please give the measured IC50 for this compound: c1ccc2c(-c3c[nH]cn3)ccnc2c1 [compound 1007, 4-(1H-imidazol-4-yl)quinoline]
Result: > 100 µM

Q: Now consider O=C(CN1CCCCCC1)Nc1ccc(CCOc2ccccc2-c2c[nH]cn2)cc1 [compound 1219] and answer again.
Result: 10 to 100 µM

Q: What about Oc1cccc(OCCN2CCOCC2)c1-c1cnc[nH]1 [compound 1231] ?
Result: 10 to 100 µM

Q: Please give the result for CC1Cn2cncc2-c2ccccc21 (stereo not drawn) [compound 1137] too.
Result: > 100 µM

---

target: purified human IDO protein (Homo sapiens); construct: 2 extra amino acids (linker from the BglII cloning site of pQE70); made in house; host or cells: E. coli M15(pREP4) with plasmid pQE70-hIDO; assay: Enzymatic IDO assay (kynurenine production, absorbance at 480 nm); type: biochemical; conditions: hIDO IC50, recombinant human IDO; values reported in ranges
measured-endpoint: IC50

// worked examples, IC50 included
In [3]: df
Out[3]:
                                        mol                             target_entity  measured_result
0    O=C1NCCN1C(=O)Oc1ccc(Cl)cc1-c1c[nH]cn1  purified human IDO protein (Homo sapiens)       1 to 10 µM
1  CN1CCN(C(=O)Oc2ccc(Cl)cc2-c2c[nH]cn2)CC1  purified human IDO protein (Homo sapiens)     10 to 100 µM
2  Oc1c(Cl)cc(Cl)c(OCCC2CCCCC2)c1-c1cnc[nH]1  purified human IDO protein (Homo sapiens)         > 100 µM
3  CN(C(=O)Oc1ccc(Cl)cc1-c1c[nH]cn1)c1ccccc1  purified human IDO protein (Homo sapiens)         > 100 µM
4        CN(C)C(=O)Oc1ccc(Br)cc1-c1c[nH]cn1  purified human IDO protein (Homo sapiens)         > 100 µM

Q: Fill in the recorded IC50 for this molecule, with purified human IDO protein (Homo sapiens) as test system: CC(=O)OCCN(C)C(=O)Oc1ccc(Cl)cc1-c1c[nH]cn1
Result: > 100 µM

Q: Do the same for CN(C)C(=O)Oc1ccc(Cl)cc1-c1c[nH]cn1 please
Result: > 100 µM

---

# Lookup of reported IC50 keyed by entry
molecular target: purified human IDO protein (Homo sapiens, UniProt P14902); construct: 2 extra amino acids (linker from the BglII cloning site of pQE70); made in house; host or cells: E. coli M15(pREP4) with plasmid pQE70-hIDO; assay: Enzymatic IDO assay (kynurenine production, absorbance at 480 nm); assay type: biochemical; settings: recombinant human IDO; values reported in ranges; read-out: hIDO IC50

# count of solved cases: 5
>>> df
                                   molecule                             target_entity  measured_endpoint  measured_result
0                    Oc1cccc(-c2c[nH]cn2)n1  purified human IDO protein (Homo sapiens, UniProt P14902)               IC50         > 100 µM
1  O=C(Nc1ccccc1)Nc1ccc(CCOc2ccccc2-c2c[nH]cn2)cn1  purified human IDO protein (Homo sapiens, UniProt P14902)               IC50       1 to 10 µM
2      Brc1ccc(OCCC2CCCCC2)c(-c2c[nH]cn2)c1  purified human IDO protein (Homo sapiens, UniProt P14902)               IC50     10 to 100 µM
3                     c1cnc(-c2c[nH]cn2)nc1  purified human IDO protein (Homo sapiens, UniProt P14902)               IC50         > 100 µM
4  CC(C)(C)OC(=O)N1CCC(CCOc2cccc(O)c2-c2cnc[nH]2)CC1  purified human IDO protein (Homo sapiens, UniProt P14902)               IC50     10 to 100 µM

Let us move to another entry and its IC50.
Q: Tell me the measured IC50 of N[C@H]1CCCC[C@H]1NC(=O)Nc1ccc(CCOc2ccccc2-c2c[nH]cn2)c(Cl)c1 (racemic) , please.
Result: < 1 µM

---

biological target: purified human IDO protein (Homo sapiens); construct: 2 extra amino acids (linker from the BglII cloning site of pQE70); made in house; host or cells: E. coli M15(pREP4) with plasmid pQE70-hIDO; assay: Enzymatic IDO assay (kynurenine production, absorbance at 480 nm); assay type: biochemical; conditions: recombinant human IDO; values reported in ranges; read-out: hIDO IC50
pIC50: −log10 of the molar value.
Overview of recorded pIC50 for various molecules

>>> df
                                   molecule  measured_endpoint  measured_result
0  CC(=O)NCc1cccc(COc2ccccc2-c2c[nH]cn2)c1 [compound 958]              pIC50     4.00 to 5.00
1  O=C(Cc1cnccn1)Nc1ccc(CCOc2ccccc2-c2c[nH]cn2)cc1 [compound 1153]              pIC50     4.00 to 5.00
2  O=C(O)c1ccccc1C(=O)Nc1ccc(CCOc2ccccc2-c2c[nH]cn2)cc1 [compound 1285]              pIC50     5.00 to 6.00
3  Clc1ccc2c(-c3c[nH]cn3)ccnc2c1 [compound 969, 7-chloro-4-(1H-imidazol-4-yl)quinoline]              pIC50           < 4.00
4  CC(C)(C)CC(=O)Nc1ccc(CCOc2ccccc2-c2c[nH]cn2)cc1 [compound 1103]              pIC50     5.00 to 6.00
5  O=C(NCc1cccc(Cl)c1)C1CCC(=CCOc2ccccc2-c2c[nH]cn2)CC1 (centres unmarked) [compound 947]              pIC50     4.00 to 5.00
6  Oc1ccc(OCc2ccccc2)cc1-c1cnc[nH]1 [compound 1105, 4-(benzyloxy)-2-(1H-imidazol-5-yl)phenol]              pIC50     4.00 to 5.00

Q: Dear colleague, I am looking for the recorded pIC50 of the following molecule: C=CCn1cncc1-c1ccccc1 [compound 1131, 1-allyl-5-phenyl-1H-imidazole]
Result: < 4.00
